B1: Pistol ribozyme (parent)
chain: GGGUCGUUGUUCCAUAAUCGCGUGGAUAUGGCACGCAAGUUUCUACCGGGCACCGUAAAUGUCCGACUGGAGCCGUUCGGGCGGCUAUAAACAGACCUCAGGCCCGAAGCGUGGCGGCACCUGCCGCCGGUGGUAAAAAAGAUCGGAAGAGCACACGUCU

- Variants of: B1
- test.details: aptazyme ON/OFF ratio, guanine; higher = stronger switching; co-transcriptional cleavage with and without guanine
observation.type: aptazyme ON/OFF ratio

Consider the worked cases shown below.
- variant.annotation: "U7C U8G G9U U10G C13G"
  result.value: 1.17
- variant.annotation: "U7A U8A G9C U10A C12G C13G"
  result.value: 1.13

Name the recorded aptazyme ON/OFF ratio of the item U7G U8C U11C C12G C13A in your answer. 1.32

Name the recorded aptazyme ON/OFF ratio of the item U7A U8A G9A U10C U11G C12U C13U in your answer. 1.13

Name the recorded aptazyme ON/OFF ratio of the item U7C U8G U11C C12U in your answer. 1.28

Name the recorded aptazyme ON/OFF ratio of the item U7A G9U U10G U11C in your answer. 1.06

Origin of the recorded values: the RNAGym collection of RNA variant scans (doi:10.1021/acssynbio.7b00057)
